List of inhibition at 0.4 µM values.
# study-target: CYP2C9 (Homo sapiens)
# Sequence (P11712 whole entry): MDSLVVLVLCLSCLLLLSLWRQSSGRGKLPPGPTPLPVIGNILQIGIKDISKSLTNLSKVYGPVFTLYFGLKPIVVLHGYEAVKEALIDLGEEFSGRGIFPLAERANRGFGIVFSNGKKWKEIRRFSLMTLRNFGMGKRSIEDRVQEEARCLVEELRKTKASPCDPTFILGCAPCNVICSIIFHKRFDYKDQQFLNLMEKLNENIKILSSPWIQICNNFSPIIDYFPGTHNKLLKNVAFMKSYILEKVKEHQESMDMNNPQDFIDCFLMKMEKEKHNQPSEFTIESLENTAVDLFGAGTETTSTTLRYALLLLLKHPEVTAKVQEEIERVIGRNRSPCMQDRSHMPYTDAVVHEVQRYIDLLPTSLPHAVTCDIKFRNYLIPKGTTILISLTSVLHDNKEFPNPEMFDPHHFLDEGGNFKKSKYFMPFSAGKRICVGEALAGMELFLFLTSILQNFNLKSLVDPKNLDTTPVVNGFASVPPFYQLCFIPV
# assay-procedure: Inhibition of CYP2C9 in human liver microsomes at 0.4 uM
# Assay type: ADME, Microsome
Give a bare numeral; the unit % is implied.

COC(=O)C(C)(C)C(c1ccc(Nc2ccccc2)cc1)n1cncn1 (configuration not stated) : 19

Attention now shifts to the item below.
Sample C[C@H]([C@@H](c1ccc(Nc2nc3ccccc3s2)cc1)n1cncn1)N(C)C ; inhibition at 0.4 µM observed: 3

---

# study-target: Cytochrome P450 1A2 (Homo sapiens)
# Sequence (P05177 whole entry): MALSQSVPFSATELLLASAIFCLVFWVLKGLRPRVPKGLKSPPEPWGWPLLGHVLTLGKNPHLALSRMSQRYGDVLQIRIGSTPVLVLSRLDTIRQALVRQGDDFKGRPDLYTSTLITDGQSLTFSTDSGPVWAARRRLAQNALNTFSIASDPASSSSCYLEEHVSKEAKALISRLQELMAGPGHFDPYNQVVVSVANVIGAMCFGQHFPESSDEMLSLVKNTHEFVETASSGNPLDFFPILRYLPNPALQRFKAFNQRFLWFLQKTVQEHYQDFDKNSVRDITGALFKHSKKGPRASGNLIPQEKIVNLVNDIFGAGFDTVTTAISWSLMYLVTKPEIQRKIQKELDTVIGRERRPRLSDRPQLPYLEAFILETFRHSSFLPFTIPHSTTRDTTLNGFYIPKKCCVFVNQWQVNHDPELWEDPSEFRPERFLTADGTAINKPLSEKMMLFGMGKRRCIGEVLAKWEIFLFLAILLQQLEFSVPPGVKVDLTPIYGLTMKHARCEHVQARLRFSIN
readout-name: IC50 (µM)
Give a bare numeral; the unit µM is implied.

Sample COC(=O)C(C)(C)C(c1ccc(Nc2ccccc2)cc1)n1cncn1 (stereo unspecified) ; IC50 observed: 8.5

---

List of IC50 values.
# study-target: Cytochrome P450 26A1 (Homo sapiens)
# Sequence (O43174 whole entry): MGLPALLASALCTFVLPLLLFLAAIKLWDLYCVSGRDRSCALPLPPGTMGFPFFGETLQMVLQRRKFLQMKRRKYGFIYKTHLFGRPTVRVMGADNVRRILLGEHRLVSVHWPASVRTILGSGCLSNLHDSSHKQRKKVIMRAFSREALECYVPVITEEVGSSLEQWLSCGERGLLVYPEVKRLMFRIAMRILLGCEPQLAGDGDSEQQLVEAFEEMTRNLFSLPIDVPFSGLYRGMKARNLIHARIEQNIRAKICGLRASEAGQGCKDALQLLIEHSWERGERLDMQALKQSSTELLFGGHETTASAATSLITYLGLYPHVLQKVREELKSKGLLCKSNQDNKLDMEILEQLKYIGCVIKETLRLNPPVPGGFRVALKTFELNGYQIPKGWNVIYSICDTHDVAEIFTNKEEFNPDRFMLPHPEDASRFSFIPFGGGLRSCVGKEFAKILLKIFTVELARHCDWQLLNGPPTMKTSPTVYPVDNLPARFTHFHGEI
# assay-procedure: Inhibition of CYP26A1 in human MCF7 cell microsomes using [3H]ATRA as substrate after 1 hr by scintillation counter analysis

# count of solved cases: 4
CNC(=O)C(C)(C)C(c1ccc(Nc2ccc(Cl)cc2)cc1)n1ccnc1 (stereo not given) : 1 µM
CCNC(=O)C(C)(C)C(c1ccc(Nc2ccccc2)cc1)n1ccnc1 (stereo not given) : 0.25 µM
CNC(=O)C(C)(C)C(c1ccc(Nc2ccc(OC)cc2)cc1)n1ccnc1 (stereo not given) : > 1 µM
CNC(=O)C(C)(C)C(c1ccc(Nc2ccccc2)cc1)n1ccnc1 (stereo not given) : 0.2 µM

Attention now shifts to the item below.
Sample CC(C)(C(=O)O)C(c1ccc(Nc2ccc(C(=O)O)cc2)cc1)n1cncn1 (stereo not given) ; IC50 observed: 0.085 µM
